- Test: Bioavailability determination in male C57BL/6 mice
- Format: in vivo
- Condition Details: mouse, whole blood, IV 2.0 mg/kg, oral 30.0 mg/kg, IP 30 mg/kg, route of the printed value not stated
Property: bioavailability; scope: individual molecules

[[record]]
molecule = "O=C(/C=C/c1ccc(O)c(O)c1)NCCc1ccc(O)cc1 [N-trans-caffeoyltyramine]"
endpoint_value = "~11%"


Then there is this molecule:
Prompt line: Fill in: bioavailability of COc1cc(/C=C/C(=O)NCCc2ccc(O)cc2)ccc1O [N-trans-feruloyltyramine] is ___
Response line: ~7%
